# Tested On: human neutral endopeptidase 24.11 (human, UniProt P08473 2-750, limits assumed)
# Sequence (P08473 2-750 limits assumed): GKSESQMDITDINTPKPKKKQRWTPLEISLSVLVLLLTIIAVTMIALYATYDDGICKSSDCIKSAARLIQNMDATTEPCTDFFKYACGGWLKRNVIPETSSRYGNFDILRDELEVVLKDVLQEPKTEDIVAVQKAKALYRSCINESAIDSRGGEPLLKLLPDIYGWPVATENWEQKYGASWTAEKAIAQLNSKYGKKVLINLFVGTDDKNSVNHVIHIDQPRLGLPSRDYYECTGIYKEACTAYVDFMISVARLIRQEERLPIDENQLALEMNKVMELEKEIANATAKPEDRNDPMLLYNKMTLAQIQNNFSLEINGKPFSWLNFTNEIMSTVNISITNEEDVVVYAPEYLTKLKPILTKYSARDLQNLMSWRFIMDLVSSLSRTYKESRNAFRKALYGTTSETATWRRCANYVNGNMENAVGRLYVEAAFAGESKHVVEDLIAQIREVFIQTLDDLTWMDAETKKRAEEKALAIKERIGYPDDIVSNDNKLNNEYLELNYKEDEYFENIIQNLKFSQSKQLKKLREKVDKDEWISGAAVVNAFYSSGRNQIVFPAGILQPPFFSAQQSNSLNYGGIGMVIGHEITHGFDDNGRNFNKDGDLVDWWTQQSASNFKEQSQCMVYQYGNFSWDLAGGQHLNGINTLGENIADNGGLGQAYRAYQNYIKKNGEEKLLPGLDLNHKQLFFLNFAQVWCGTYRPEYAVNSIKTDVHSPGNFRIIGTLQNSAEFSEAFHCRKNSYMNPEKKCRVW
# Assay Info: cell-based or functional assay
Bridges are numbered along the chain shown (N, C = ends). Where no end group is shown, it is not given here.
Readout Kind: Half-Life (h)

# Binder, Recorded Value
records = [
    ("SLRRSSCFGGRIDRIRAQSGLGCNSFRY (disulfide 7-23, Synthetic; Cys7-Cys23 disulfide; also called hANF(1-28) M12I, G16R) [ANF 24]", 10),
    ("TAPRSLRRSSCFGGRMDRIGAQSGLGCNSFRY [urodilatin]", 31),
    ("TAPRSLRRSSCFGGRIDRIRAQSGLGCNSFRY (disulfide 11-27) [ANF 23]", 12.3),
    ("SLRRSSCFTGSMDRIGAQSGLGCNSFRY (disulfide 7-23, Cys7-Cys23 disulfide; also called hANF(1-28) G9T, R11S) [ANF 50]", 1.55),
]

All values here come from patent US6525022B1.
